Provide the recorded growth for the entries that follow.
# Test system: RPMI-8226 leukemia
# method: NCI-60 one-dose screen, 48 h (100 = growth as untreated, 0 = no growth, -100 = all killed)
# condition_notes: 10 µM unless noted
Compounds without any hit were thinned out: in the full panel of roughly 83,000, 20% have a hit.
Give bare numbers, in %.

Look over these answered cases.
COc1ccc(NC(=O)CSc2oc(-c3ccccc3)nc2S(=O)(=O)c2ccc(Cl)cc2)c(OC)c1 49.9
Oc1ccc(C2OCCO2)c2cccnc12 29.6
O=[N+]([O-])c1ccc(Oc2cccc3c(Oc4ccc([N+](=O)[O-])cc4[N+](=O)[O-])cccc23)c([N+](=O)[O-])c1 95.6
COc1ccc(/C=N\NC(=O)c2ccc3nc(-c4ccc(Cl)cc4)[nH]c3c2)cc1 59.2
COc1ccc(-c2nc3cc(C(=O)NC4CCCCC4)ccc3n2C2CCCCC2)cc1 79.2

# next compound below
growth for `Oc1c(Cl)cc(Cl)c2ccc(CN3CCNCC3)nc12` is 39.4

====

# Tested on: RXF 393 renal
# method: NCI-60 one-dose screen, 48 h (100 = growth as untreated, 0 = no growth, -100 = all killed)
# condition_notes: 10 µM unless noted
About 83,000 compounds went through this panel and 20% of them were active in at least one assay; those are over-represented in the sample as a whole.
Exam item: assign yes to entries whose growth is below 50% and no to entries at or above 50%. Note that a value of exactly 50% receives no.

Illustrative cases are given below, each with its answer.
molecule	assay_target	assigned_label
Cc1csc(Nc2nc(-c3cccc(Cl)c3)nc(C(Cl)(Cl)Cl)n2)n1	RXF 393 renal	yes
CN1CC(c2ccccc2)C(C(=O)c2ccc(Br)cc2)C12C(=O)Nc1ccccc12 (centres undefined)	RXF 393 renal	no
FC(F)(F)c1cccc(-c2nnn(Cc3cc(-c4cccc(Cl)c4)no3)n2)c1	RXF 393 renal	no
COc1cc(OCc2cccc(-c3ccc4c(c3)OCCO4)c2C)cc(OC)c1C=O	RXF 393 renal	no
O=C(O)CCCN1C(=O)CSC1=S	RXF 393 renal	no

Input line: In the record for `CC/C(=C(/c1ccc(Cl)cc1)c1ccc(OCCCN(C)C)cc1)c1ccc(OC)cc1` , is growth less than 50%?
Output line: no

Input line: In the record for `CCCc1cc(CCC)n2nc(N)nc2n1` , is growth less than 50%?
Output line: no

Input line: In the record for `C#CCOc1cccc(-c2ncnc3cc(NC(=O)CCl)ccc23)c1` , is growth less than 50%?
Output line: yes

====

# Test system: OVCAR-5 ovarian
# method: NCI-60 one-dose screen, 48 h
# condition_notes: 10 µM unless noted
The panel holds about 83,000 compounds, 20% with a hit somewhere; the sample as a whole holds those more often. Active and inactive are the calls of the source. Rule for the calls: active = growth percent below 10; inactive = the rest.
Mark one answer only. Choices: 1 for active, -1 for inactive

compound	assigned_label
CC(=O)O[C@H]1CC[C@@]2(C)C(=CC[C@@H]3[C@@H]2CC[C@]2(C)C(Cl)=C(c4nc5ccc(Cl)cn5c4NC(C)(C)C)C[C@@H]32)C1	-1

Input line: Each compound tested received a call. Report the one for `CS(=O)(=O)c1ccc(/C(=N/NC(N)=S)c2ccc(F)cc2)cc1` .
Output line: -1

Input line: Each compound tested received a call. Report the one for `C#CCOc1cc(/C=N/Nc2nc(-c3ccc(OC)cc3)cs2)ccc1O` .
Output line: -1

Input line: Each compound tested received a call. Report the one for `O=C(Nc1ccc2[nH]ncc2c1)c1csc(Nc2ccccc2)n1` .
Output line: -1

Input line: Each compound tested received a call. Report the one for `Cc1c(CC(=O)Nc2ccccc2)nnn1-c1ccccc1` .
Output line: -1

Input line: Each compound tested received a call. Report the one for `O=C1C(c2c(O)[nH]c3ncccc23)=Nc2ccccc21` .
Output line: -1

Input line: Each compound tested received a call. Report the one for `CCOc1ccccc1NC(=O)CCC(=O)OC` .
Output line: -1

Input line: Each compound tested received a call. Report the one for `O=C1/C(=C/c2cccc([N+](=O)[O-])c2)COc2ccc(O)c(O)c21` .
Output line: 1

Input line: Each compound tested received a call. Report the one for `CCOC(=O)c1c(N)sc2cc(O)ccc12` .
Output line: -1

====

# Tested on: OVCAR-3 ovarian
# method: NCI-60 one-dose screen, 48 h (100 = growth as untreated, 0 = no growth, -100 = all killed)
# condition_notes: 10 µM unless noted
The panel holds about 83,000 compounds, 20% with a hit somewhere; the sample as a whole holds those more often.
measurement_name: growth (%)
Give bare numbers, in %.

compound	growth (%)
CN(C)CCOc1ccc(/C(=C(/CCCCCCCCCC[P+](c2ccccc2)(c2ccccc2)c2ccccc2)c2ccccc2)c2ccccc2)cc1	-93.9
O=C(Cn1cc(CSc2nc3ccccc3o2)nn1)Nc1ccc([N+](=O)[O-])cc1	103
COc1cccc(NC(=O)c2sc3nc(C)c(C(=O)c4ccccc4)cc3c2N)c1	92.9

List the reported growth of each compound below.
1. CCOC(=O)c1cnc2sc(-c3ccc(OC)cc3)nc2c1Cl
2. COc1ccc(Nc2nccc(Nc3ccc4[nH]ncc4c3)n2)cc1
3. Cc1nn(-c2ccccc2)c(Oc2ccccc2)c1/C=N/NC(=O)Cn1c(=O)sc2ccccc21
4. COc1cc(/C=C2\C(=O)N(CCOc3cc(O)c4c(=O)cc(-c5ccccc5)oc4c3)c3ccccc32)cc(OC)c1O

Output line:
108
48.9
61.6
55

List the reported growth of each compound below.
1. CN1CCN(Cc2ccc(NC(=O)c3cc(C#Cc4cnc(N)c5ncccc45)n(C)n3)cc2C(F)(F)F)CC1
2. O=C1C=CC2(O)OC(c3ccccc3)CC(=O)C2=C1O (centres undefined)
3. CCOC(=O)C1=C(C)N(C)C(=O)N(C)C1c1ccccc1 (centres undefined)
4. Oc1cccc2c1NCCC2

Output line:
[119, 1.12, 99.1, 4.94]

====

# Tested on: SF-539 CNS
# method: NCI-60 one-dose screen, 48 h (100 = growth as untreated, 0 = no growth, -100 = all killed)
# condition_notes: 10 µM unless noted
About 83,000 compounds went through this panel and 20% of them were active in at least one assay; those are over-represented in the sample as a whole.
Provide the recorded growth for the entries that follow.
Numbers only, in %.

compound	measurement_name	unit_text	reported_result
C[C@@H]1N=C(c2ccc(Cl)cc2Cl)Nc2nc3ccccn3c2C1=O	growth	%	53
Clc1ccc(C2=Nn3c(nnc3-c3cc(Cl)cc(Cl)c3Cl)SC2)cc1	growth	%	72.9
CC(Cc1cccc2ccccc12)C(N)=O (configuration not stated)	growth	%	96.6
c1ccc(-c2nc(N3CCNCC3)c3oc(-c4ccccc4)nc3n2)cc1	growth	%	-95.9
Nc1ncnc2c1N=C(c1ccc([N+](=O)[O-])cc1)CC(c1ccc3c(c1)OCO3)N2 (configuration not stated)	growth	%	85.7
CSc1nc(N)c2c(n1)NC(c1ccccc1)C1CCc3ccccc3C1=N2 (configuration not stated)	growth	%	102

# next compound below
growth for O=C1CC2C=CCN2C=C1NC(=O)c1ccccc1 (configuration not stated) is 107

====

# Tested on: SW-620 colon
# method: NCI-60 one-dose screen, 48 h (100 = growth as untreated, 0 = no growth, -100 = all killed)
# condition_notes: 10 µM unless noted
Compounds without any hit were thinned out: in the full panel of roughly 83,000, 20% have a hit.
measurement_name: growth (%)
Give bare numbers, in %.

Look over these answered cases.
molecule	assay_target	growth / %
O=C(Nc1ncc(Cc2ccccc2)s1)c1cc(-c2ccccc2)nc2ccccc12	SW-620 colon	96.2
C#Cc1cccc(Nc2ncnc3ccc(-c4cnc(Cl)c(NS(C)(=O)=O)c4)cc23)c1	SW-620 colon	2.56
C=C(C)[C@@H]1CC[C@]2(C#N)CC[C@]3(C)[C@H](CC[C@@H]4[C@@]5(C)CCCNC(C)(C)[C@@H]5CC[C@]43C)[C@@H]12	SW-620 colon	2.83
Nc1ncc(-c2ccc3ncnc(N4CCc5cc(F)c(Cl)cc54)c3c2)cc1C=O	SW-620 colon	37.9
c1ccc2cc(Cn3cc[n+](Cc4ccc5ccccc5c4)c3)ccc2c1	SW-620 colon	58

List the reported growth of each molecule below.
1. CCN1C(=O)N(CC)C2C1NC(=S)N2/N=C/C=C/c1cccs1 (stereo not drawn)
2. COc1ccc(-n2c(=O)n(-c3ccc(-c4nc5ccc(F)cc5s4)cc3)c(=O)c3cccnc32)cc1
3. O=C(CNc1ncco1)Nc1ccc(S(=O)(=O)c2ccc(NC(=O)CNc3ncco3)cc2)cc1

Output line:
1: 25.5; 2: 106; 3: -82

List the reported growth of each molecule below.
1. CCCC[N+]1(C)CCN=C1Cc1ccccc1 (stereo not drawn)
2. CC1=NC(=S)NC(c2ccccc2)/C1=C1/CC(c2ccccc2O)NN1 (stereo not drawn)
3. N#Cc1c(-c2ccc(Cl)cc2)nc(NN=Cc2cccc(Cl)c2)nc1N1CCOCC1
4. COc1nc2ccccc2cc1/C=[N+](\[O-])c1ccccc1
5. CCOC(=O)c1c(C)nc2c(c1N)C(=O)C(=O)N2CCc1ccc(OC)c(OC)c1

Output line:
1. 98.4
2. 100
3. 53.3
4. 28.4
5. 47.8
